Reference source for all entries: patent US9233983B2

# System: mouse splenocytes
# assay_summary: Inhibition of B Cell Activation as Measured by CD69 Expression in Mouse Splenocytes
# Type: cell-based
# measurement_context: Splenocyte; C57/BL6 splenocytes, 3 ug/mL goat anti-mouse IgM, 18-20 hrs, CD69+ve cells within CD19; read-out: Mouse spleenocyte IC50
assay_endpoint: pIC50
Schema: pIC50 number; meaning minus log10 of the concentration expressed in molar units.

Specify reported pIC50 for the compound shown: CC1(O)CN(Cc2ccc(-c3cc4c(-c5cccc(N6CCOc7cc(C8CC8)ccc7C6=O)c5CO)ccnc4[nH]3)cc2)C1 7.13

For the compound CC1CN(Cc2ccc(-c3cc4c(-c5cccc(N6CCOc7cc(C8CC8)cc(F)c7C6=O)c5CO)ccnc4[nH]3)nc2)CC(C)N1C (stereo not shown) , give its reported pIC50. 8.12

// fetch pIC50 given entry CC1(O)CCN(C(=O)c2ccc(-c3cc4c(-c5cccc(N6CCOc7cc(C8CC8)ccc7C6=O)c5CO)ccnc4[nH]3)nc2)CC1 7.17

Answer with the recorded pIC50 for the compound listed here: Cc1c(-c2ncnc3[nH]c(-c4ccc(CN5CCNCC5)cc4)cc23)cccc1N1CCc2cc(C3CC3)ccc2C1=O 6.78

Check the records and state pIC50 for CN1CCN(Cc2ccc(-c3cc4c(-c5cccc(N6CCOc7cc(C8CC8)cc(F)c7C6=O)c5CO)ccnc4[nH]3)nc2)CC1 8.30

Entry O=C1c2ccc(C3CC3)cc2OCCN1c1cccc(-c2ccnc3[nH]c(-c4cnn(C5COC5)c4)cc23)c1CO needs its pIC50 filled in; supply it. 7.15

Indicate the recorded pIC50 value for this compound: Cc1c(-c2ncnc3[nH]c(-c4ccc(CN5CCNCC5)cc4)cc23)cccc1N1CCOc2cc(C3CC3)ccc2C1=O 7.00

Return reported pIC50. Input compound: NC(=O)c1ccc(-c2cc3c(-c4cccc(N5CCOc6cc(C7CC7)ccc6C5=O)c4CO)ccnc3[nH]2)nc1 8.10

Provide one value: measured pIC50 of O=C1c2ccc(C3CC3)cc2OCCN1c1cccc(-c2ccnc3[nH]c(-c4ccc(CN5CCN(C6CC6)CC5)cn4)cc23)c1CO 7.52

Supply pIC50 value. Item: O=C(N1CC=C(c2cc3c(-c4cccc(N5CCOc6cc(C7CC7)cc(F)c6C5=O)c4CO)ccnc3[nH]2)CC1)N1CCOCC1 8.27

Dear colleague, please send me the reported pIC50 for Cc1c(-c2ncnc3[nH]c(-c4ccc(C(=O)N5CCN(C)CC5)cc4)cc23)cccc1N1CCOc2cc(C3CC3)ccc2C1=O when you can. 6.83

// fetch pIC50 given entry O=C1c2ccc(C3CC3)cc2OCCN1c1cccc(-c2ccnc3[nH]c(-c4ccc(CN5CCN(S(=O)(=O)C6CC6)CC5)cn4)cc23)c1CO 7.51

###

For each entry below, report its pIC50 value.
# Test system: mouse splenocytes
# assay_summary: Inhibition of B Cell Activation as Measured by CD69 Expression in Mouse Splenocytes
# Type: cell-based
# measurement_context: Splenocyte; C57/BL6 splenocytes, 3 ug/mL goat anti-mouse IgM, 18-20 hrs, CD69+ve cells within CD19; read-out: Mouse spleenocyte IC50
# Experimental: Inhibition of B Cell Activation as Measured by CD69 Expression in Mouse Splenocytes: […] Test compounds were diluted half log starting from 2 mM in 100% DMSO (200×). […] Then the cells were washed 3 times with PBS with 1% FBS and analyzed by Guava Easycyte Mini flow cytometer system (Millipore). Flow cytometry data were analyzed using Weasel software (WEHI, Melbourne). […] Then expression of CD69 was analyzed as percentage of CD69+ve cells within CD19. […]
// returns pIC50 (minus log10 of molar concentration), number only

Input CC1(O)CCN(C(=O)c2ccc(-c3cc4c(-c5cccc(N6CCOc7cc(C8CC8)ccc7C6=O)c5CO)ccnc4[nH]3)cc2)CC1 , output reported pIC50. 7.06

In one line, give reported pIC50 of the entry O=C1c2ccc(C3CC3)cc2OCCN1c1cccc(-c2ccnc3[nH]c(-c4ccc(CN5CCS(=O)(=O)CC5)cn4)cc23)c1CO . 7.07

Give a short answer stating reported pIC50 for CN1CCN(Cc2ccc(-c3cc4c(-c5cccc(N6CCOc7cc(C8CC8)cc(F)c7C6=O)c5CO)ccnc4[nH]3)nc2)CC1=O . 7.74

Fill in pIC50 for record CN1CC(N2CC=C(c3cc4c(-c5cccc(N6CCOc7cc(C8CC8)cc(F)c7C6=O)c5CO)ccnc4[nH]3)CC2)C1 7.15

Note down pIC50 recorded for CN1CCN(Cc2ccc(-c3cc4c(-c5cccc(N6CCOc7cc(C8CC8)ccc7C6=O)c5CO)ccnc4[nH]3)nc2)CC1 7.85

Tell me its pIC50 given Cc1c(-c2nc(N)nc3[nH]c(-c4ccc(CN5CCN(C)CC5)cc4)cc23)cccc1N1CCOc2cc(C3CC3)ccc2C1=O as the entry. 7.21
